Test: in vitro
Type: cell-based, human
Settings: human
Protocol: This study aimed to assess the anti-proliferative activity of dolutegravir-1,2,3-triazole derivatives on hepatocellular carcinoma cell lines, Huh7 and hepG2. A comprehensive CCK8 assay was employed to evaluate the impact of these compounds on cell viability, with cells treated at a concentration of 20 μM for 48 h. […] CCK8 assay was used to measure cell viability. […] Absorbance was measured using a Microplate spectrophotometer (Thermo, Waltham, MA, USA) at 450 nm. […]
measuredEndpoint: viability at 48 h, 20 µM (%)
// units = %; emit number, no label

Specify measured viability at 48 h, 20 µM for C[C@@H]1CCO[C@H]2Cn3cc(C(=O)NCc4ccc(F)cc4F)c(=O)c(O)c3C(=O)N12 .
99.6
